molecular target: SIRT3 (Homo sapiens); test: SIRT3 enzyme inhibitory assay (fluorescence); type: biochemical; conditions: dose of 10 μM; mean of three experiments; read-out: SIRT3 percentage inhibitory rate
Sequence (Q9NTG7 whole entry): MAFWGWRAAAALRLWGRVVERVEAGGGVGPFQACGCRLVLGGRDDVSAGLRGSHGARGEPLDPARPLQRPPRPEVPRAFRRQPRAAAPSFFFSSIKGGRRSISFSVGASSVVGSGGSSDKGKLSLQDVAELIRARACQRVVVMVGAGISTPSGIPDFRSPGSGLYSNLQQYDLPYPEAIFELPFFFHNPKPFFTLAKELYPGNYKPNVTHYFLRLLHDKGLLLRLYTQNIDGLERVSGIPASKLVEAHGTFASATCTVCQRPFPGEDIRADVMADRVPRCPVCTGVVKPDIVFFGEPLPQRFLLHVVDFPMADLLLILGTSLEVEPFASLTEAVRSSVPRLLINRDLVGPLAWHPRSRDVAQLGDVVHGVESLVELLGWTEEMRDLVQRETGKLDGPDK
Parameter measured: inhibition at 10 µM
Don't forget the unit after the value.

Q: Identify measured inhibition at 10 µM corresponding to "C=CC(=O)Nc1ccc(-c2cc(C(=O)Nc3ccc(Cl)cc3)c3ccccc3n2)cc1"
A: 35.7%

Q: Identify measured inhibition at 10 µM corresponding to "C=CC(=O)Nc1ccc(-c2cc(C(=O)Nc3ccc(F)cc3)c3ccccc3n2)cc1"
A: 26.4%

Q: Identify measured inhibition at 10 µM corresponding to "C=CC(=O)Nc1ccc(-c2cc(C(=O)Nc3ccc(Br)cc3)c3ccccc3n2)cc1"
A: 26.8%

Q: Identify measured inhibition at 10 µM corresponding to "C=CC(=O)Nc1ccc(-c2cc(C(=O)Nc3ccc4c(c3)OCO4)c3ccccc3n2)cc1"
A: 45.1%

Q: Identify measured inhibition at 10 µM corresponding to "C=CC(=O)Nc1ccc(-c2cc(C(=O)Nc3ccc(OCC)cc3)c3ccccc3n2)cc1"
A: 29.6%

Q: Identify measured inhibition at 10 µM corresponding to "C=CC(=O)Nc1ccc(-c2cc(C(=O)Nc3ccc(C)cc3)c3ccccc3n2)cc1"
A: 38.9%

Q: Identify measured inhibition at 10 µM corresponding to "C=CC(=O)Nc1ccc(-c2cc(C(=O)Nc3cc(OC)cc(OC)c3)c3ccccc3n2)cc1"
A: 42.8%

Q: Identify measured inhibition at 10 µM corresponding to "C=CC(=O)Nc1ccc(-c2cc(C(=O)N3CCN(c4cccc(Cl)c4)CC3)c3ccccc3n2)cc1"
A: 21.8%

Reference source: paper PMC9005971
